target: human GPCR sphingosine 1-phosphate receptor 1 (Homo sapiens, UniProt P21453); construct: host or cells: CHO; test: S1PR1 selectivity Ca2+ flux assay (antagonist readout); type: cell-based; details: antagonist readout, CHO cells overexpressing human S1PR1 and Gq, S1P at EC80 (6 nM); read-out: S1P1 EC50 (nM), S1P1 antagonist EC50
Sequence (P21453 whole entry): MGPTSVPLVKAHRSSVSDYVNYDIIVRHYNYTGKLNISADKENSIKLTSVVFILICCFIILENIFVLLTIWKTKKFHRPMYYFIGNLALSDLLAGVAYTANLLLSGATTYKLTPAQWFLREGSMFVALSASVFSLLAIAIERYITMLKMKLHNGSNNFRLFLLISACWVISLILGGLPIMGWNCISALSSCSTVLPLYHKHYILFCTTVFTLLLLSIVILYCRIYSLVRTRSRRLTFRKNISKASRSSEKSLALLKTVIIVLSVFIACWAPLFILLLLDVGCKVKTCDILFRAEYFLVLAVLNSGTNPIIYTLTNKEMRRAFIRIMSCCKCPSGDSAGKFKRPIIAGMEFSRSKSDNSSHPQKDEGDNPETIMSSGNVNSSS
value-type: EC50

Examples with answers:
[[record]]
compound = "CC(C(=O)O)n1nc(Cc2cn3cc(OCC4CC4)c(C#N)cc3n2)c2ccccc2c1=O (stereo not shown)"
value_type = "EC50"
result = "≥ 19800 nM"

[[record]]
compound = "CS(=O)(=O)NC(=O)Cn1nc(Cn2cc3cc(OCC4CC4)c(Cl)cc3n2)c2ccccc2c1=O"
value_type = "EC50"
result = "≥ 19800 nM"


Please give the measured EC50 for this compound: `O=C(O)c1cn(Cc2cn3cc(OCC4CC4)c(Cl)cc3n2)c2ccccc2c1=O`
≥ 19800 nM

Name the recorded EC50 for N#Cc1cc2[nH]c(Cc3nn(CC(=O)N4CCC(O)(C5CC5)C4)c(=O)c4ccccc34)nc2cc1OCC(F)F (stereo not shown) .
≥ 19800 nM
